- System: Hs-578T
- measurement_protocol: NCI tumour cell line growth inhibition, 48 h
Calls of active or inactive are those of the source. No stated cut-off is given here; in the data, active = GI50 up to about 1.1 µM and inactive = higher.
Output constraint: value belongs to active, inactive

Some solved entries appear below for comparison.
Input: Identify the outcome logged in this assay for the compound shown: COC(=O)c1cccc(OC)c1C#Cc1c(OC)cccc1OC
Output: inactive

Input: What is the recorded call for this compound in the test? CCCCOC(=O)C1CC[C@H]2[C@@H]3CCc4cc(OC(=O)c5cccc6c(=O)c7ccccc7[nH]c56)ccc4[C@H]3CC[C@]12C (some centres undefined)
Output: inactive

Input: Call for entry COc1cccc(Nc2nc(N)nc(N)c2N)c1 :
Output: inactive

Turning now to a further compound:
Input: Identify the outcome logged in this assay for the compound shown: O=C(NNC(=O)c1ccncc1)C(=O)Nc1cc(Cl)c(Cl)cc1Cl
Output: inactive
